System: TK-10 renal
Protocol: NCI tumour cell line growth inhibition, 48 h
Test Readout: TGI

Recorded results for 5 molecules are shown here.
1) CC1=C[C@H]2c3c(c(O)c(O)c4oc(-c5ccccc5)cc(=O)c34)[C@H](c3cc(O)c(O)c4oc(-c5ccccc5)cc(=O)c34)[C@H]2C(C)(C)C1 = 31 µM
2) CCC(=O)ONC(=O)Cn1ccc([N+](=O)[O-])n1 = > 100 µM
3) CC(=O)O[C@H]1CC[C@@]2(C)C(=CC[C@H]3[C@@H]4C[C@H](N5CCOCC5)[C@H](OC(C)=O)[C@@]4(C)CC[C@@H]32)C1 = > 100 µM
4) O=c1c(C(c2ccc(Cl)cc2)c2c(O)c3ccccc3n(-c3ccccc3)c2=O)c(O)c2ccccc2n1-c1ccccc1 = > 100 µM
5) CCOC(=O)NC(=O)c1cn(CCCOC(=O)CCCCCCCCCCC(=O)OCCCn2cc(C(=O)NC(=O)OCC)c(=O)[nH]c2=O)c(=O)[nH]c1=O = > 100 µM

Find the recorded TGI belonging to Nc1ccc(S(=O)(=O)Nc2nccs2)cc1 and report it.
> 100 µM

Look up TGI for this molecule: Nc1ccn(C2CCC(CO)O2)c(=O)n1 (stereo not drawn)
> 1000 µM

Consider the molecule Nc1ccc(C(=O)N2CCC[C@H]2CO)c(N)c1 and give its measured TGI.
> 100 µM

For the molecule shown here, CC(C)(C)OC(=O)NCCCNC1(c2cc3ccccc3s2)CCCCC1 , give the reported TGI.
32 µM

----------
System: BT-549 breast
Protocol: NCI tumour cell line growth inhibition, 48 h
Test Readout: TGI

I'd like to know its TGI. The compound in question is Oc1cccc(-c2nc3cc(F)ccc3s2)c1
45.1 µM

----------
Recorded GI50, one value per entry.
Tested on: IGROV1 ovarian
Protocol: NCI tumour cell line growth inhibition, 48 h

Observe how each entry below is paired with its result.
1) CN(C)c1cc[c]([Sn]([c]2ccc(N(C)C)cc2)([c]2ccc(N(C)C)cc2)[c]2ccc(N(C)C)cc2)cc1 = 5.25 µM
2) Nc1ccc(-c2nc3ccc(Cc4ccc5nc(-c6ccc(N)cc6)[nH]c5c4)cc3[nH]2)cc1 = 16.9 µM
3) COc1ccc(/C=C/C(=O)C(CC2CCC2)C(=O)/C=C/c2ccc(OC)c(OC)c2)cc1OC = 2 µM

Now look at this one.
Quick check: GI50 of CCn1c(SCc2ccc(C)cc2)nnc1-c1nn(-c2ccc(Cl)cc2Cl)c(-c2ccc(Cl)cc2)c1C ?
2.62 µM

----------
Test system: HOP-92 NSCLC
Protocol: NCI tumour cell line growth inhibition, 48 h
Test Readout: TGI (µM)
Number only, in µM; omit the unit.

Answered cases to consult:
1) CCOC(=O)C1C2CCC1CC(=NNc1ccc([N+](=O)[O-])cc1[N+](=O)[O-])C2 (stereo unspecified) = 48.7
2) COc1ccc(/C=C/C(=O)C(CC2CCC2)C(=O)/C=C/c2ccc(OC)c(OC)c2)cc1OC = 7.9
3) Cc1cc(C(C)(C)CC(C)(C)C)ccc1OCCOCC[N+](C)(C)Cc1ccccc1 = 2.46
4) CC(=O)C(=CN1CCN(C(=O)c2ccco2)C1=S)C(C)=O = 46
5) C#Cc1c(I)n(C2OC(CO[Si](C)(C)C(C)(C)C)C3OC(C)(C)OC32)c(=O)[nH]c1=O (stereo unspecified) = 26.1

Tell me reported TGI for CC/C=C\C[C@H]1C/C=C2/C(=O)C=C[C@@H]2C/C=C\CCCC(=O)O1 , tested with HOP-92 NSCLC.
5.93

Reported TGI for HOP-92 NSCLC, given C[C@]12CC[C@@H]3c4cc(OCC(F)(F)F)c(O)cc4/C(=N/O)C[C@H]3[C@@H]1CC[C@@H]2O ?
26.3

Give TGI (HOP-92 NSCLC) of the following molecule: O=C(N/N=C/c1cc(Br)cc(Br)c1[O-])c1ccccc1O.O=C(N/N=C/c1cc(Br)cc(Br)c1[O-])c1ccccc1O.[Cu+2]
1.28

Query the reported TGI for HOP-92 NSCLC; item: CCN1CCC(O)(/C=C/c2ccc(C)cc2C)C(C(=O)/C=C/c2ccc(C)cc2C)C1 (stereo unspecified)
3.8
